test system: U251 CNS; assay: NCI tumour cell line growth inhibition, 48 h
compounds and their reported TGI

Sample records with TGI:
>  <COMPOUND>
CC(=O)c1ccc(Nc2nc3ccccc3c3occc23)cc1

>  <RESULT>
> 100 µM

$$$$
>  <COMPOUND>
CCOC(=O)C(C(=O)OCC)S(C)(=O)=O

>  <RESULT>
> 100 µM

$$$$

Please tell me: TGI of CCOC(=O)C12CCC(c3c(C)cccc3C)(O1)C(C(=O)OC)=C2C(=O)OC (stereo not drawn) , system U251 CNS?
> 10 µM

---

system: CAKI-1 renal; experiment: NCI tumour cell line growth inhibition, 48 h
compounds and their reported TGI

>  <COMPOUND>
CN(CCO)c1nc(=O)c2c(n1C1OC(CO)C(O)C(O)C1O)CCCC2 (stereo not given)

>  <EXPERIMENTAL_SYSTEM>
CAKI-1 renal

>  <RESULT>
> 100 µM

$$$$
>  <COMPOUND>
CC(O)(c1ccc(OCCC[N+](C)(C)C)cc1)C(C)(O)c1ccc(OCCC[N+](C)(C)C)cc1 (stereo not given)

>  <EXPERIMENTAL_SYSTEM>
CAKI-1 renal

>  <RESULT>
> 100 µM

$$$$
>  <COMPOUND>
O=C(OCC1CC(C2(O)CCCCC2)C(=O)O1)c1ccccc1 (stereo not given)

>  <EXPERIMENTAL_SYSTEM>
CAKI-1 renal

>  <RESULT>
> 100 µM

$$$$

Quick one: TGI for `N#Cc1c2c(c(Nc3cccc(C(F)(F)F)c3)n3c1nc1ccccc13)CCCC2` ?
82.4 µM

Also S=C1C(CCCOCc2ccccc2)C2CCCC23CC2(CCN13)OCCS2 (stereo not given) , if possible.
> 10 µM

Also `O=[N+]([O-])c1cc(C(F)(F)F)cc2n[se]nc12` , if possible.
9 µM

---

tested on: SNB-75 CNS; experiment: NCI tumour cell line growth inhibition, 48 h
QUANTITY: TGI

>  <COMPOUND>
Cc1cc2nc3c(C#N)c4c(c(Cl)n3c2cc1C)CCC4

>  <EXPERIMENTAL_SYSTEM>
SNB-75 CNS

>  <QUANTITY>
TGI

>  <RESULT>
> 100 µM

$$$$

Please tell me: TGI of `N#Cc1ccc(C(=O)c2cnn(-c3ccc(F)cc3)c2N)cc1` , system SNB-75 CNS?
> 25 µM

Also `CCOC(=O)c1c(Br)c(-c2ccc([N+](=O)[O-])cc2)c(Br)n1C` , if possible.
> 10 µM

Also `COc1ccc(Cl)cc1Nc1nc(C(F)(F)F)ccc1C(=O)N/N=C/c1ccccc1Cl` , if possible.
> 100 µM

---

system: RXF 393 renal; assay: NCI tumour cell line growth inhibition, 48 h
Given measured TGI, output YES if it is greater than or equal to 20 µM and NO if not.

Example entries and their recorded answers appear below.
>  <MOLECULE>
C[C@@]12C[C@@H](c3ccccc3O1)N1CCCSC1=N2

>  <CLASSIFICATION>
YES

$$$$
>  <MOLECULE>
Cc1ccc2c(c1)C(=O)/C(=C/c1cccc(OCC(=O)c3ccc(Cl)cc3)c1)CS2

>  <CLASSIFICATION>
YES

$$$$
>  <MOLECULE>
COc1ccc(Cl)cc1Nc1nc(C(F)(F)F)ccc1C(=O)N/N=C/c1ccccc1Cl

>  <CLASSIFICATION>
NO

$$$$

I'd appreciate it if you could say whether NC1C2C=CC(C2)C1C(=O)O (configuration not stated) has TGI at least equal to 20 µM.
YES

Also `Cn1cc(-c2csc(-c3cn(CCCN4CCCCC4)c4ccc(Br)cc34)n2)c2cccnc21` , if possible.
NO

Also `Cc1cnc(-c2ccc(-c3ccc(NC(=O)Nc4cccc(C(F)(F)F)c4)cc3F)c3c2C(=O)NC3)[nH]1` , if possible.
YES

Also CC(C)(CN1CCCCC1)C(=O)CC(SCCS(=O)(=O)O)c1ccccc1 (configuration not stated) , if possible.
YES

Also O=C(O)C1C2C=CC(O2)C1C(=O)NCc1ccncc1 (configuration not stated) , if possible.
YES

Also C=C1C(=O)O[C@H]2C1C[C@H](O)/C(C)=C/CC[C@@]1(C)O[C@H]21 (some centres not stated) , if possible.
YES

Also `CN1CCN(C(=O)[C@@]2(C)CC[C@]3(C)CC[C@]4(C)C(=CC[C@@H]5[C@@]6(C)CC[C@H](OC(=O)c7cccnc7)C(C)(C)[C@@H]6CC[C@]54C)[C@@H]3C2)CC1` , if possible.
NO

Also c1ccc(N2CCN(CCCN3CCc4c([nH]c5ccccc45)C3c3cccnc3)CC2)cc1 (configuration not stated) , if possible.
YES
